MEASURED_ENDPOINT: pIC50
The quantity pIC50 is defined as the negative base-10 logarithm of the molar concentration.

Challenge: What pIC50 appears in the records for this compound with Amine oxidase [flavin-containing] B (Homo sapiens, UniProt P27338)? `COc1cccc(-c2csc(N/N=C/c3ccncc3)n2)c1`
Sequence (P27338 whole entry): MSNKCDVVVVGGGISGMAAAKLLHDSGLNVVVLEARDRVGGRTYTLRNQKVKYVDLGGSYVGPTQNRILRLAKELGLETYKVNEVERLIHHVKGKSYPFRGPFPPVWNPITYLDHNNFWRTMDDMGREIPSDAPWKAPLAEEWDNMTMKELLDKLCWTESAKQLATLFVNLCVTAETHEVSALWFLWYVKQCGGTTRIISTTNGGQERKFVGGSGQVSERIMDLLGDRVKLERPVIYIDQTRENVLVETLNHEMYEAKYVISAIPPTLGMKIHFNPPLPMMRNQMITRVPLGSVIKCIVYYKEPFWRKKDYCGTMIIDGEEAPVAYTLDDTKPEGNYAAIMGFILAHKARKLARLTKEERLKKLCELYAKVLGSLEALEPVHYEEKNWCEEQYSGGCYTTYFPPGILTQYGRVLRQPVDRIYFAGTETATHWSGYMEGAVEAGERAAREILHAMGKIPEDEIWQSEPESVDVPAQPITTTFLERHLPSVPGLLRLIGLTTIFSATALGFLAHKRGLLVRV
Response given: 5.94

Challenge: What pIC50 appears in the records for this compound with Amine oxidase [flavin-containing] B (Homo sapiens, UniProt P27338)? `COc1cccc(-c2csc(N/N=C(\C)c3cccnc3)n2)c1`
Response given: 8.42

Challenge: What pIC50 appears in the records for this compound with Amine oxidase [flavin-containing] B (Homo sapiens, UniProt P27338)? `COc1cccc(-c2csc(N/N=C/c3cccnc3)n2)c1`
Response given: 5.54

Challenge: What pIC50 appears in the records for this compound with Amine oxidase [flavin-containing] B (Homo sapiens, UniProt P27338)? `COc1cccc(-c2csc(NN=C3CCCC3)n2)c1`
Response given: 5.97

Challenge: What pIC50 appears in the records for this compound with Amine oxidase [flavin-containing] B (Homo sapiens, UniProt P27338)? `CCC/C(C)=N/Nc1nc(-c2cccc(OC)c2)cs1`
Response given: 6.06

Challenge: What pIC50 appears in the records for this compound with Amine oxidase [flavin-containing] B (Homo sapiens, UniProt P27338)? `COc1cccc(-c2csc(N/N=C/c3c[nH]c4ccccc34)n2)c1`
Response given: 6.10

Challenge: What pIC50 appears in the records for this compound with Amine oxidase [flavin-containing] B (Homo sapiens, UniProt P27338)? COc1cccc(-c2csc(N/N=C3\CCCC(C)C3)n2)c1 (stereo not given)
Response given: 7.14

Challenge: What pIC50 appears in the records for this compound with Amine oxidase [flavin-containing] B (Homo sapiens, UniProt P27338)? `COc1cccc(-c2csc(N/N=C/c3cccs3)n2)c1`
Response given: 6.31

Challenge: What pIC50 appears in the records for this compound with Amine oxidase [flavin-containing] B (Homo sapiens, UniProt P27338)? `COc1cccc(-c2csc(N/N=C(\C)c3cc4ccccc4oc3=O)n2)c1`
Response given: 5.16

Challenge: What pIC50 appears in the records for this compound with Amine oxidase [flavin-containing] B (Homo sapiens, UniProt P27338)? `COc1cccc(-c2csc(NN=C3CCCCCC3)n2)c1`
Response given: 7.53
